- System: SNB-75
- ASSAY EXPLANATION: NCI tumour cell line growth inhibition, 48 h
Active and inactive are the calls of the source. No stated cut-off is given here; in the data, active = GI50 up to about 1.1 µM and inactive = higher.
Possible outcomes: active, inactive

COMPOUND	LABEL VALUE
CC1OC(OCC2OC(Oc3ccc(C4CC(=O)c5c(O)cc(O)cc5O4)cc3O)C(O)C(O)C2O)C(O)C(O)C1O (stereo not given)	inactive
CC[C@@]1(O)C(=O)OCc2c1cc1n(c2=O)Cc2cc3c(NC(=O)CN)cccc3nc2-1	active
CCSc1nc(N/N=C/c2cccs2)c2cnn(CO)c2n1	inactive
O=C(/C=C/c1ccc(O)c(O)c1)OCCc1cccc2ccccc12	inactive
COc1c(Br)cc(/C=C(\C#N)c2cccnc2)cc1Br	inactive
O=CN1CCN(CC(O)CN2CCCCC2)CC1 (stereo not given)	inactive
CC(C)CNP(=O)(NCC(C)C)Oc1ccc(CC(NC(=O)OCc2ccccc2)C(=O)OCc2ccccc2)cc1 (stereo not given)	inactive
CC1=C(C(=O)OCCc2ccc([N+](=O)[O-])cc2)C(c2cccc([N+](=O)[O-])c2)C(C(=O)OC(C)C)=C(C)N1 (stereo not given)	inactive
CC1=CC(C)C(C)N(CCNC(=O)Nc2ccccc2)c2ccccc21 (stereo not given)	inactive
Nc1nc2c(ncn2Cc2ccccc2CCO)c(=O)[nH]1	inactive
